Hello, the source for this data is patent US20220213055A1, in case you need it.

Listed compounds paired with reported pIC50
Tested on: Immortalized human astrocytes
Assay Method Text: MTT cell viability assay, astrocytes (non-cancer control)
Assay type: cell-based
Condition Set: Homo sapiens, Astrocyte, 72 h, immortalized human astrocytes, MTT after three days
pIC50: −log10 of the molar value.
Readout: pIC50

compound="OCC1(CCCc2ccccc2)CCCN(c2ccccn2)C1 (stereo not drawn) [PLH1291]" measured_on="Immortalized human astrocytes" readout=pIC50 observed="< 4.10"
compound="Nc1nccc(N2CCC(CO)(CCCc3ccccc3)CC2)n1 [JDDUVA49]" measured_on="Immortalized human astrocytes" readout=pIC50 observed="< 4.10"
compound="OCC1(CCCc2ccccc2)CCCN(c2ccncn2)C1 (stereo not drawn) [PLH2062]" measured_on="Immortalized human astrocytes" readout=pIC50 observed="< 4.10"

###

System: Glioblastoma cell line U87 cells
Assay Method Text: MTT cell viability assay, glioblastoma cells
Format: cell-based
Condition Set: Homo sapiens, U-87 MG, 72 h, U87 glioblastoma cells, MTT after three days
Readout: IC50

compound="CCOC(=O)C1(CCCc2ccccc2)CCCN(C(=O)OC(C)(C)C)C1 (centres unmarked)" observed="~15 µM"
compound="Nc1ccnc(N2CCCC(CO)(CCCc3ccccc3)C2)n1 (centres unmarked)" observed="> 80 µM"
compound="Cc1nc(N)nc(N2CCCC(CO)(CCCc3ccccc3)C2)c1C (centres unmarked)" observed="~1 µM"
compound="COC(=O)C1(CCCc2ccccc2)CCCN(c2ccnc(N)n2)C1 (centres unmarked)" observed="~10.9 µM"
compound=COc1c(Cl)ncnc1N1CCC(CO)(CCCc2ccccc2)CC1 observed="~2.5 µM"

###

System: Glioblastoma cell line U87 cells
Assay Method Text: MTT cell viability assay, glioblastoma cells
Assay type: cell-based
Condition Set: Homo sapiens, U-87 MG, 72 h, U87 glioblastoma cells, MTT after three days
Readout: IC50 (µM)

compound="OCC1(CCCc2ccccc2)CCN(c2cc(C(F)(F)F)ncn2)CC1 [JDDUVA47]" inequality_operator== observed=13
compound="OCC1(CCCc2ccccc2)CCCN(c2ccccn2)C1 (centres unmarked) [PLH1291]" inequality_operator== observed=14
compound="Cc1nc(N(C)C)nc(N2CCCC(CO)(CCCc3ccccc3)C2)c1C (centres unmarked) [PLH1276]" inequality_operator== observed=19
compound="Nc1cncc(N2CCC(CO)(CCCc3ccccc3)CC2)n1 [JDDUVA55]" inequality_operator== observed=16
compound="OCC1(CCCc2ccccc2)CCCN(c2ncnc3ccccc23)C1 (centres unmarked) [PLH1295]" inequality_operator=< observed=1

###

The entries below are paired with their reported pIC50.
System: Immortalized human astrocytes
Assay Method Text: MTT cell viability assay, astrocytes (non-cancer control)
Format: cell-based
Condition Set: Homo sapiens, Astrocyte, 72 h, immortalized human astrocytes, MTT after three days
pIC50: −log10 of the molar value.
Readout: pIC50

compound="CCOC(=O)C1(CCCc2ccccc2)CCCN(C(=O)OC(C)(C)C)C1 (centres unmarked) [PLH1225]" inequality_operator=< observed=4.10
compound="Cc1nc(N)nc(N2CCC(CO)(CCCc3ccccc3)CC2)c1C [JDDUVA43]" inequality_operator== observed=4.33
compound="COC(=O)C1(CCCc2ccccc2)CCCN(C(=O)OC(C)(C)C)C1 (centres unmarked) [PLH1195]" inequality_operator== observed=4.19
compound="O=C(O)C1(CCCc2ccccc2)CCCNC1 (centres unmarked) [PLH1197]" inequality_operator=< observed=4.10

###

Readings of IC50 for the listed compounds
Test system: Glioblastoma cell line U87 cells
Assay Method Text: MTT cell viability assay, glioblastoma cells
Assay type: cell-based
Condition Set: Homo sapiens, U-87 MG, 72 h, U87 glioblastoma cells, MTT after three days
Readout: IC50 (µM)

compound=Nc1nc(N)nc(N2CCC(CO)(CCCc3ccccc3)CC2)n1 inequality_operator== observed=12
compound=COc1nc(OC)nc(N2CCC(CO)(CCCc3ccccc3)CC2)n1 inequality_operator== observed=41
compound="Nc1nccc(N2CCCC(C(=O)NCc3ccccc3)C2)n1 (stereo not shown)" inequality_operator=> observed=80
compound=Nc1ncnc(N2CCC(CO)(CCCc3ccccc3)CC2)c1N inequality_operator== observed=12
compound=Cc1nccnc1N1CCC(CO)(CCCc2ccccc2)CC1 inequality_operator== observed=30
compound="Nc1ncnc(N2CCCC(CO)(CCCc3ccccc3)C2)n1 (stereo not shown)" inequality_operator=> observed=80
compound=Cc1c(Cl)ncnc1N1CCC(CO)(CCCc2ccccc2)CC1 inequality_operator== observed=21
compound="Nc1nccc(N2CCCC(CO)C2)n1 (stereo not shown)" inequality_operator=> observed=80
compound="Cc1nccnc1N1CCCC(CO)(CCCc2ccccc2)C1 (stereo not shown)" inequality_operator== observed=20
compound="OCC1(CCCc2ccccc2)CCCNC1 (stereo not shown)" inequality_operator=> observed=80
compound=Nc1nccc(N2CCC(CO)(CCCc3ccccc3)CC2)n1 inequality_operator== observed=3
compound="COC(=O)C1CCCNC1 (stereo not shown)" inequality_operator=> observed=80
compound="Nc1nc(N)nc(N2CCCC(CO)(CCCc3ccccc3)C2)n1 (stereo not shown)" inequality_operator== observed=3.6
compound=Cc1c(O)ncnc1N1CCC(CO)(CCCc2ccccc2)CC1 inequality_operator== observed=14.1
compound="Nc1nccc(N2CCCC(C(=O)NCCc3ccccc3)C2)n1 (stereo not shown)" inequality_operator== observed=17
compound="COC(=O)C1CCCN(c2ccnc(N)n2)C1 (stereo not shown)" inequality_operator=> observed=80
compound=Nc1nccc(N2CCCCC2)n1 inequality_operator=> observed=80

###

Test system: Glioblastoma cell line U87 cells
Assay Method Text: MTT cell viability assay, glioblastoma cells
Format: cell-based
Condition Set: Homo sapiens, U-87 MG, 72 h, U87 glioblastoma cells, MTT after three days
pIC50: −log10 of the molar value.
Readout: pIC50

molecule="CC(C)(C)OC(=O)N1CCCC(C(=O)NCc2ccccc2)C1 (centres unmarked)" observed="< 4.10"
molecule="Nc1nccc(N2CCCCC2CO)n1 (centres unmarked)" observed="< 4.10"
molecule="Nc1nccc(N2CCCC(CO)(CCCc3ccccc3)C2)n1 (centres unmarked)" observed=~4.93
molecule="Cc1c(-c2ccccc2)ncnc1N1CCCC(CO)(CCCc2ccccc2)C1 (centres unmarked)" observed=~4.10
molecule="COc1nc(OC)nc(N2CCCC(CO)(CCCc3ccccc3)C2)n1 (centres unmarked)" observed=4.20

###

System: Glioblastoma cell line U87 cells
Assay Method Text: MTT cell viability assay, glioblastoma cells
Assay type: cell-based
Condition Set: Homo sapiens, U-87 MG, 72 h, U87 glioblastoma cells, MTT after three days
Readout: IC50 (µM)

compound="O=Cc1c(Cl)ncnc1N1CCCC(CO)(CCCc2ccccc2)C1 (centres unmarked) [PLH1293]" measured_on="Glioblastoma cell line U87 cells" readout=IC50 unit_info=µM observed=8
compound="Cc1c(Cl)ncnc1N1CCCC(CO)(CCCc2ccccc2)C1 (centres unmarked) [PLH1279]" measured_on="Glioblastoma cell line U87 cells" readout=IC50 unit_info=µM observed=8

###

Test system: Immortalized human astrocytes
Assay Method Text: MTT cell viability assay, astrocytes (non-cancer control)
Format: cell-based
Condition Set: Homo sapiens, Astrocyte, 72 h, immortalized human astrocytes, MTT after three days
Method: Different concentration of compounds were added to the cells. Three days later, a MTT assay (Sigma) was performed to monitor cell viability. In this example, samples of glioblastoma cells (U87) and astrocyte cells (non-cancer control) were exposed various disclosed compounds to determine the effectiveness of the compounds for inhibiting cell growth.
// values below are reported IC50
Readout: IC50

molecule="Nc1ncnc(N2CCC(CO)(CCCc3ccccc3)CC2)c1N [JDDUVA51]" observed="> 80 µM"
molecule="COc1c(Cl)ncnc1N1CCCC(CO)(CCCc2ccccc2)C1 (stereo not drawn) [PLH1302]" observed="~20 µM"
molecule="Cc1nc(N(C)C)nc(N2CCCC(CO)(CCCc3ccccc3)C2)c1C (stereo not drawn) [PLH1276]" observed="> 80 µM"

###

Test system: Glioblastoma cell line U87 cells
Assay Method Text: MTT cell viability assay, glioblastoma cells
Format: cell-based
Condition Set: U87 glioblastoma cells, MTT after three days
pIC50: −log10 of the molar value.
Catalogue of pIC50 readings, one per entry.
Readout: pIC50

compound="Nc1nccc(N2CCCC(CO)(CCCc3ccccc3)C2)n1 (stereo not drawn) [JDDUVA38]" observed=~4.96
compound="Nc1nccc(N2CCCC(CO)(CCCc3ccccc3)C2)n1 (stereo not drawn) [JDDUVA28]" observed=~4.91
compound="Nc1nccc(N2CCCC(CCCc3ccccc3)(COCc3ccccc3)C2)n1 (stereo not drawn)" observed=~5.47

###

System: Glioblastoma cell line U87 cells
Assay Method Text: MTT cell viability assay, glioblastoma cells
Assay type: cell-based
Condition Set: Homo sapiens, U-87 MG, 72 h, U87 glioblastoma cells, MTT after three days
pIC50: −log10 of the molar value.
Reported pIC50 is given for each of the following compounds.
Readout: pIC50

compound="Cc1ncnc(N2CCC(CO)(CCCc3ccccc3)CC2)c1C [JDDUVA96]" readout=pIC50 observed=~5.40
compound="CS(=O)(=O)OCC1(CCCc2ccccc2)CCCN(c2ccnc(N)n2)C1 (stereo not drawn) [PLH1224]" readout=pIC50 observed=~4.30
compound="CCOC(=O)C1(CCCc2ccccc2)CCN(C(=O)OC(C)(C)C)CC1 [JDDUVA76]" readout=pIC50 observed=~4.52
